- Test system: SW480
- Method: Anticancer activity against human SW480 cells assessed as decrease in cell growth incubated for 72 hrs by tryphan blue staining based cell counter analysis
- Assay type: functional
- Stated conditions: SW480, 72 h
Observation type: pIC50
pIC50 is a log-scale quantity: -log10 of the concentration expressed in molar.

Bench note, SW480: entry COc1cc(C2Oc3cc([C@H]4Oc5cc(O)cc(O)c5C(=O)[C@@H]4O)ccc3OC2CO)ccc1O (stereo partly specified) , its pIC50 = 4.30

---

- Tested target: CBP/beta catenin (Homo sapiens, UniProt P35222+Q92793)
- Sequence (Q92793 whole entry): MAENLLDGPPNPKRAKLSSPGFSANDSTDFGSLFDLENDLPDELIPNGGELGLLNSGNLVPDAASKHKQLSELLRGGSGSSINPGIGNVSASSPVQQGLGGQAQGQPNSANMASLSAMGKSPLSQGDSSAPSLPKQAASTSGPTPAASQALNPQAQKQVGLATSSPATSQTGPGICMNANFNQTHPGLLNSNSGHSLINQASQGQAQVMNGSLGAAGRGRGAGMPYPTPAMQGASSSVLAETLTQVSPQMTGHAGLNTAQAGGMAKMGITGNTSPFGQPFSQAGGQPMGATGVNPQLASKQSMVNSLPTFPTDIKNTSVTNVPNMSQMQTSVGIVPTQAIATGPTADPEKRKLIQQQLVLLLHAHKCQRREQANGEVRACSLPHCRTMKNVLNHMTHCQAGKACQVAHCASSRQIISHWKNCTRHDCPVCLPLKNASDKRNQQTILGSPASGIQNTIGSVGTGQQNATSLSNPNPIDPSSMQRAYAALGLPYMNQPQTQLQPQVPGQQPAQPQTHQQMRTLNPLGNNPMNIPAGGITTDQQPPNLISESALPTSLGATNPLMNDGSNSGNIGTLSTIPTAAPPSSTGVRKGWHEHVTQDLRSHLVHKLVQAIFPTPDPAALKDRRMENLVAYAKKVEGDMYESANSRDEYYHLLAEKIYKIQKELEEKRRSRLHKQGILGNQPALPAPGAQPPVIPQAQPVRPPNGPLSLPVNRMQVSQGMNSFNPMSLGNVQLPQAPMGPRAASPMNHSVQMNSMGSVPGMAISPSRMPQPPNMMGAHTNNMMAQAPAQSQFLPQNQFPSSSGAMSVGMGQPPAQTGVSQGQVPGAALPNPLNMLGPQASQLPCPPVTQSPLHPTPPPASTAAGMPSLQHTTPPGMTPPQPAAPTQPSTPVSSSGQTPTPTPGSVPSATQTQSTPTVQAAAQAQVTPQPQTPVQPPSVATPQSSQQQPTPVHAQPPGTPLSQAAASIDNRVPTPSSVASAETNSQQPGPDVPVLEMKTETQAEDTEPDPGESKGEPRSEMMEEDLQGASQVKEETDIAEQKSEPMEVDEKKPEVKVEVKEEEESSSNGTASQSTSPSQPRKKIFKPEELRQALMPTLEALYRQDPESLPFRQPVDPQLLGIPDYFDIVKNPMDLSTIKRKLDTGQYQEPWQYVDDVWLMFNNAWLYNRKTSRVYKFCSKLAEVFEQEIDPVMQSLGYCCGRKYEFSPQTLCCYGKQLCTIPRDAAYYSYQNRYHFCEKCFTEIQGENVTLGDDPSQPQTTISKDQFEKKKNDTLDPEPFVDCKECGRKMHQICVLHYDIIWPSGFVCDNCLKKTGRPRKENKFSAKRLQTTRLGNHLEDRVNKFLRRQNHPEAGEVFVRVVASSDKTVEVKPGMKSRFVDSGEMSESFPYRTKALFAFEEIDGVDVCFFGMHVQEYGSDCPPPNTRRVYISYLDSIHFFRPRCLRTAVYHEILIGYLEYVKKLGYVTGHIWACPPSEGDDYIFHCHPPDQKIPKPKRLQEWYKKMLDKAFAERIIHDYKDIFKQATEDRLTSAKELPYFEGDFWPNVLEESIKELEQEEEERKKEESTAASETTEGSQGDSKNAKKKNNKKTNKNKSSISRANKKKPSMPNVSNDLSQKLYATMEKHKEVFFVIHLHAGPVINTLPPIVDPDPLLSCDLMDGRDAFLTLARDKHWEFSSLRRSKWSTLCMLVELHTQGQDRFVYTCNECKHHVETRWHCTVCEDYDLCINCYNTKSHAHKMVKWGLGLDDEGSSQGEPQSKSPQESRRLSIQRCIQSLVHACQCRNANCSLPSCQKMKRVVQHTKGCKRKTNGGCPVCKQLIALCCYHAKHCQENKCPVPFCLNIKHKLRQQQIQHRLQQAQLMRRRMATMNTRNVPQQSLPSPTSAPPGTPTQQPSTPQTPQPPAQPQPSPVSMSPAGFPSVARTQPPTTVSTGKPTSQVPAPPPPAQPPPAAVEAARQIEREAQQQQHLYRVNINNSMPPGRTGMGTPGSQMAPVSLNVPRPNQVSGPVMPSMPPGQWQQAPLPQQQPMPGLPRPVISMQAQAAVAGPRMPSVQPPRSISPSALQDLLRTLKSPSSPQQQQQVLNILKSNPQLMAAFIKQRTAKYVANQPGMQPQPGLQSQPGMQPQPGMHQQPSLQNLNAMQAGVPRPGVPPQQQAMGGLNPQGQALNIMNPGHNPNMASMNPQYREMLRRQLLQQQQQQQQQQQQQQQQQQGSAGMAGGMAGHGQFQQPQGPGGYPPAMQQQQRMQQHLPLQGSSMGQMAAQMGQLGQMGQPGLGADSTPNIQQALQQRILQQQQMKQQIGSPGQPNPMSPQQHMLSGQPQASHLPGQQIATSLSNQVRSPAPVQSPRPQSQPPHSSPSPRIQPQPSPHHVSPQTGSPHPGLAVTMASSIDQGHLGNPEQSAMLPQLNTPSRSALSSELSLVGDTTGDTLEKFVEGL
- Sequence (P35222 whole entry): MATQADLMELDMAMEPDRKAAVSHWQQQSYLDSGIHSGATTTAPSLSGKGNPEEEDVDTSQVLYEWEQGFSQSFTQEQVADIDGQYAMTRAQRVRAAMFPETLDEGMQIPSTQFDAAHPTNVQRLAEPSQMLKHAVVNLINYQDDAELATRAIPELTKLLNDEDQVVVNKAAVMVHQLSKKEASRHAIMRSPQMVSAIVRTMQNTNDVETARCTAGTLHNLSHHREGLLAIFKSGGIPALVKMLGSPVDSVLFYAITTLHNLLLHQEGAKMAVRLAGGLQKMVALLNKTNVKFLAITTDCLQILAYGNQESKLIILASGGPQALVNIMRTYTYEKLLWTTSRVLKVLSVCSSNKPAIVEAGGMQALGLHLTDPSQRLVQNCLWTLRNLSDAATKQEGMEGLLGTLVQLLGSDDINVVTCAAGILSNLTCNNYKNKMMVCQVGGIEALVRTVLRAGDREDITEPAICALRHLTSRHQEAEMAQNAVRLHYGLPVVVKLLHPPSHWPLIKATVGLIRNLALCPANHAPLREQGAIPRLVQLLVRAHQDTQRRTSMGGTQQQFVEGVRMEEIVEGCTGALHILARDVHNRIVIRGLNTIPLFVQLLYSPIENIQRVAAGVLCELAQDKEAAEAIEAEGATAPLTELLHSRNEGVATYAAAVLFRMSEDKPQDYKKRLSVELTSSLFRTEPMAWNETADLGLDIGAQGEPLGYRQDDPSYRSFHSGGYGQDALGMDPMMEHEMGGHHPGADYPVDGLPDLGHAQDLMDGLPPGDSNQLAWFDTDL
- Method: Antagonist activity at CBP/beta-catenin (unknown origin) protein-protein interaction
Observation type: pIC50
pIC50 is a log-scale quantity: -log10 of the concentration expressed in molar.

Record C[C@H]1[C@H]2N(C(=O)CN(C)N2C(=O)NCc2ccccc2)[C@@H](Cc2ccc(OP(=O)(O)O)cc2)C(=O)N1Cc1cccc2cccnc12 , field pIC50: 6.82

---

- Method: Inhibition of Wnt/beta-catenin signaling pathway in mouse L Wnt-3A cells harbouring STF-reporter gene assessed as assessed as reduction in luciferase activity incubated for 24 hrs by luciferase reporter assay
- Assay type: cell-based
molecules and their reported pIC50
pIC50 is a log-scale quantity: -log10 of the concentration expressed in molar.

Solved entries (count: 2):
COc1ccccc1-n1nc(C(=O)NCC(=O)Nc2nc3ccc(C)cc3s2)c2c(c1=O)SCC2    7.40
Cc1ccc2nc(NC(=O)CNC(=O)c3nn(-c4ccccc4)c(=O)c4c3CCS4)sc2c1    7.57

Record COc1ccc(-n2nc(C(=O)NCC(=O)Nc3nc4ccc(OC)cc4s3)c3ccccc3c2=O)cc1 , field pIC50: 7.24

Record Cc1ccc(-n2nc(C(=O)NCC(=O)Nc3nc4ccc(C)cc4s3)c3c(c2=O)SCC3)cc1 , field pIC50: 7.60

---

- Tested target: Catenin beta-1/Transcription factor 7 (Homo sapiens, UniProt P35222+P36402)
- Sequence (P36402 whole entry, one chain of several, the tested form may be a part): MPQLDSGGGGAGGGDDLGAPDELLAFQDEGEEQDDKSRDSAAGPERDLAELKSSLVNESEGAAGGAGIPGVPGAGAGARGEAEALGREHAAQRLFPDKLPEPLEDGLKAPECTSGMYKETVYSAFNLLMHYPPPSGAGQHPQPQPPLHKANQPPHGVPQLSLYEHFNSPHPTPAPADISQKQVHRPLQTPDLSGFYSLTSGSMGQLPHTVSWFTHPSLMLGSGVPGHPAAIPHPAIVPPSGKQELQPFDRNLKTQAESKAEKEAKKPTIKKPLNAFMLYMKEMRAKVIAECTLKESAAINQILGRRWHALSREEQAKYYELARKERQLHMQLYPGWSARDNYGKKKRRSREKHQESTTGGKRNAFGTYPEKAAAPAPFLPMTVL
- Method: Inhibition of human beta-catenin (142 to 686 residues)/human TCF (7 to 51 residues) protein-protein interaction incubated for 3 hrs by fluorescence polarization assay
Observation type: IC50 (µM)
Unit µM implied. Number only.

Record Cn1ncc2cc(CCc3nn[nH]n3)ccc21 , field IC50: 3.14

---

- System: SW480
- Method: Anticancer activity against human SW480 cells assessed as reduction in cell viability incubated for 72 hrs
- Type: functional, cell-based
- Stated conditions: SW480, 72 h
Observation type: EC50 (nM)
Unit nM implied. Number only.

Record Cc1cc(/C=C/c2ccc3cc(N(C)C)ccc3[n+]2C)c(C)n1-c1ccccc1 , field EC50: 56

---

- Test system: DLD-1
- Method: Antiproliferative activity against human DLD-1 cells assessed as reduction in cell viability by WST assay
- Assay type: functional, cell-based
Observation type: IC50 (µM)
Unit µM implied. Number only.

Record O=C1[C@@H](Cc2ccccc2)N2C(=O)CCN(C(=O)NCc3ccccc3)[C@@H]2CN1Cc1cccc2ccccc12 , field IC50: 21.5

---

- Tested target: 3-beta-hydroxysteroid-Delta(8),Delta(7)-isomerase (Homo sapiens)
- Sequence (Q15125 whole entry): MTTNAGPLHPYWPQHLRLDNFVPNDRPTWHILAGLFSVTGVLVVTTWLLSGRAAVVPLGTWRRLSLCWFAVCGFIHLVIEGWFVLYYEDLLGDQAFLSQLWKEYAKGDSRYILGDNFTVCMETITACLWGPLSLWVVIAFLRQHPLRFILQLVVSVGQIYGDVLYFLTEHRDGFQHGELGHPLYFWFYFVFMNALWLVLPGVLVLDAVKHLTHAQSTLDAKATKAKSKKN
- Method: Inhibition of EBP (unknown origin)
Observation type: IC50 (nM)
Unit nM implied. Number only.

Cc1cc(C)c(S(=O)(=O)N2CCC(NCc3ccccc3)CC2)c(C)c1    2.95

Record Cc1cc(C)c(S(=O)(=O)N2CCC([N+]3(C)CCCC3)CC2)c(C)c1 , field IC50: 303

Record Cc1cc(C)c(S(=O)(=O)N2CCC(N3CCCCCC3)CC2)c(C)c1 , field IC50: 9.36

Record Cc1cc(C)c(S(=O)(=O)N2CCC(N3CN4CCC3CC4)CC2)c(C)c1 , field IC50: 188

Record Cc1ccc(-c2ccc(S(=O)(=O)N3CCC(N4CCC(C)CC4)CC3)cc2)cc1 , field IC50: 49

---

compounds and their reported IC50
- Tested target: DNA polymerase beta (Homo sapiens)
- Method: Inhibition of human DNA polymerase beta using 32P-labeled 63-mer F-DNA substrate preincubated for 5 mins followed by substrate addition and measured after 45 mins by autoradiography

Solved entries (count: 3):
Cc1cc(SC(=O)O)c(S(=O)(=O)Nc2n[nH]c(Nc3ccccc3)n2)cc1C    < 50 µM
Cc1cc(C)c(S(=O)(=O)Nc2n[nH]c(Nc3ccc4ccccc4c3)n2)cc1C    < 50 µM
Cc1cc(C)c(S(=O)(=O)Nc2n[nH]c(Nc3ccccc3)n2)cc1C    < 50 µM

In the following, a different compound is considered.
Record COc1cccc(Nc2nc(NS(=O)(=O)c3cc(C)c(C)cc3C)n[nH]2)c1 , field IC50: < 50 µM

---

- Species on record: Mus musculus
- Method: Anticancer activity against C57BL/6J mouse small intestine organoid assessed as decrease in cell growth and measured after 4 days by qPCR analysis
- Assay type: functional
- Stated conditions: 96 h
Observation type: pIC50
pIC50 is a log-scale quantity: -log10 of the concentration expressed in molar.

Record CS(=O)(=O)c1ccccc1N1CCN(c2nc(O)c3c(n2)CCSC3)CC1 , field pIC50: 6.96

---

- Tested target: Adenomatous polyposis coli protein (Homo sapiens, UniProt P25054)
- Method: Inhibition of APC (303 to 739 residues) (unknown origin) assessed as inhibition constant preincubated for 60 mins followed by substrate addition and measured after 60 mins using Ac-GGGGEQLAINELISDGK-FITC as substrate by fluorescence polarization assay
Observation type: pKi
pKi is a log-scale quantity: -log10 of the concentration expressed in molar.

Solved entries (count: 3):
H-GGEQLAI-OH    4.35
Ac-GGEALAW-OH    5.51
Ac-AGEALAD-OH    5.62

In the following, a different substance is considered.
Record Ac-GGEALAD-OH , field pKi: 5.42

---

- Tested target: Adenomatous polyposis coli protein (Homo sapiens, UniProt P25054)
- Method: Inhibition of APC (303 to 739 residues) (unknown origin) preincubated for 60 mins followed by substrate addition and measured after 60 mins using Ac-GGGGEQLAINELISDGK-FITC as substrate by fluorescence polarization assay
Observation type: pIC50
pIC50 is a log-scale quantity: -log10 of the concentration expressed in molar.

Ac-GGEALAD-OH    4.92
Ac-AGEALAD-OH    5.10
Ac-GGEALAW-OH    4.99

Bench note, Adenomatous polyposis coli protein (Homo sapiens, UniProt P25054): entry H-GGEQLAI-OH , its pIC50 = 3.87

---

- Method: Inhibition of APC/ASEF (unknown origin) protein protein interaction incubated for 2 hrs by fluorescence polarization analysis
- Set-up: species or system Homo sapiens
Observation type: pIC50
pIC50 is a log-scale quantity: -log10 of the concentration expressed in molar.

Record COc1cccc(C2=NN(c3ccc(C(=O)Nc4cc(C(F)(F)F)cc(C(F)(F)F)c4)cc3)C(c3ccc4c(ccn4C)c3)C2)c1 (stereo unspecified) , field pIC50: 5.99

---

- System: HCT-116
- Method: Anticancer activity against human HCT-116 cells assessed as reduction in cell viability
- Assay type: functional, cell-based
compounds and their reported IC50
Unit µM implied. Number only.

COC(=O)c1cccc(NS(=O)(=O)c2ccc(C)cc2)c1    0.58

Record CCOC(=O)C[C@H](NC(=O)[C@H](Cc1c[nH]c2ccccc12)NC(=O)Cc1cc2cc(C)ccc2[nH]1)C(=O)N[C@@H](CCC(=O)O)C(=O)OC , field IC50: 28.8

Record CN1CCN(S(=O)(=O)c2ccc(N3CCCC3=O)cc2)c2ccccc21 , field IC50: 0.008

---

- System: HCT-116
- Method: Antiproliferative activity against human HCT-116 cells assessed as decrease in cell growth incubated for 24 hrs by MTS assay
- Format: functional, cell-based
- Stated conditions: HCT-116, 24 h
Observation type: pIC50
pIC50 is a log-scale quantity: -log10 of the concentration expressed in molar.

Bench note, HCT-116: entry O=C(O[C@@H]1Cc2c(O)cc(O)cc2O[C@@H]1c1cc(O)c(O)c(O)c1)c1cc(O)c(O)c(O)c1 [EPIGALOCATECHIN GALLATE] , its pIC50 = 5.30

---

- Tested target: UniProtKB O95271
- Sequence (O95271 whole entry): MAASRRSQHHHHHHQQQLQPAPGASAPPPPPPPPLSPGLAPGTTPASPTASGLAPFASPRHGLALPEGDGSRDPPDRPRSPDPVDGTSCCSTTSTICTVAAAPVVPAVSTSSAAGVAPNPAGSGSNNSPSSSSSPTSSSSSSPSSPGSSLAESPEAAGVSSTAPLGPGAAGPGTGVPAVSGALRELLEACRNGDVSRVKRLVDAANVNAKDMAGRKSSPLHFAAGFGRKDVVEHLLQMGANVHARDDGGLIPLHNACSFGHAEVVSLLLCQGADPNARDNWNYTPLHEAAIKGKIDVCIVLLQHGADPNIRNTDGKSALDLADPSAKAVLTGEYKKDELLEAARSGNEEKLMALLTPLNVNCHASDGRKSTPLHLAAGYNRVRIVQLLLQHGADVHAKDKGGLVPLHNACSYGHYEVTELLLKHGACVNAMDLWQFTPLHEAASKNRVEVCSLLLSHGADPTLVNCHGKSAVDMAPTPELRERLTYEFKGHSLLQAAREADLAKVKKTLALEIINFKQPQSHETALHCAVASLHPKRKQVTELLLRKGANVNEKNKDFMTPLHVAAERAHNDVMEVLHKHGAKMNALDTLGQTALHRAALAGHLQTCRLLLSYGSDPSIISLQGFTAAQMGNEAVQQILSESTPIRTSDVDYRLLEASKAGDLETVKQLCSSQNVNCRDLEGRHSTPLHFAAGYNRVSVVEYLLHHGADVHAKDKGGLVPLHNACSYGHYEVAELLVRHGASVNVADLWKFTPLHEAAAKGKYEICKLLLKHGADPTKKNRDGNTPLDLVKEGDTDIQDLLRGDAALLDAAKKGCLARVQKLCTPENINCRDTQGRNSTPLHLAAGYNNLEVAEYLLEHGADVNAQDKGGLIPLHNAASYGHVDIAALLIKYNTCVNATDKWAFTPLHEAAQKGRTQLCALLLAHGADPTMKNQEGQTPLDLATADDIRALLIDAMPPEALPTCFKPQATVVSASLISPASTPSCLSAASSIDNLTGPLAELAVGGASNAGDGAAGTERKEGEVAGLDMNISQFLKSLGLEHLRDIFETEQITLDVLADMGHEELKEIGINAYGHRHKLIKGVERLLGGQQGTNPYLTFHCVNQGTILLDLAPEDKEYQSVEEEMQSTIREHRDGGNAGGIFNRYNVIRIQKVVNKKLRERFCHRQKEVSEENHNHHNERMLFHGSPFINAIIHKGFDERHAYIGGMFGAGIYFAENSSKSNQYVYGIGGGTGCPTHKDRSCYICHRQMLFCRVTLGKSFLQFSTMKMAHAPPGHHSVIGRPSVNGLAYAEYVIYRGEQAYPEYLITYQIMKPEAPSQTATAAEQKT
Observation type: pIC50
pIC50 is a log-scale quantity: -log10 of the concentration expressed in molar.

Record COc1ccc(C2(CNC(=O)c3ccc(NC(=O)c4ccco4)cc3)CCOCC2)cc1 , field pIC50: 5.72
